experiment: qHTS assay to identify small molecule antagonists of the peroxisome proliferator-activated receptor gamma (PPARg) signaling pathway - cell viability counter screen (AID 743194); conditions: PPARg-bla HEK293H viability, CellTiter-Glo luminescence, 17 h, co-treated with 50 nM rosiglitazone; series mostly up to 62.6 µM; also: nearly all actives have a fitted effect of over 55% in size; also: potency is read from the fitted curve at half-maximal effect
Results filed as inconclusive are left out. The source made the active and inactive calls. Calls follow the shape of the dose curve; as a rule, active = well fitted cell-killing curve with a large enough effect in the repeat runs; inconclusive = weak or mixed curves, or effect the other way; inactive = no such curve, though single readings can be large or run the other way.
Assay Metric: Potency

Clc1ccc(Sc2cc(Cl)c(Cl)cc2Cl)cc1    inactive
CCCCCCOCCOCCO    inactive
Oc1ccc(C(c2ccc(O)cc2)C(Cl)(Cl)Cl)cc1    43.5 µM (active)
CC(C)=CCO    inactive

----------
Assay: qHTS assay to identify small molecule antagonists of the constitutive androstane receptor (CAR) signaling pathway - cell viability counter screen (AID 1224837); also: nearly all actives have a fitted effect of over 45% in size
Settings: HepG2-CYP2B6-hCAR viability, CellTiter-Fluor, 23 h, co-treated with 50 nM CITCO; series mostly up to 92.4 µM
Procedure: National Center for Advancing Translational Sciences [NCATS] NIH Chemical Genomics Center [NCGC] U.S. Environmental Protection Agency [EPA] National Institutes of Environmental Health Sciences [NIEHS] National Toxicology Program [NTP] […] A double-stable (hCAR and CYP2B6-2.2kb) transfected cell line, derived from human hepatoma (HepG2) cells, was utilized for the duration of the quantitative high-throughput screens. […] The fluorescence intensity in the plates was then measured using a ViewLux plate reader.
Records with an inconclusive call do not appear. Active and inactive are the calls of the source. Calls come from the whole dose curve; as a rule, active = well fitted cell-killing curve with a large enough effect in the repeat runs; inconclusive = weak or mixed curves, or effect the other way; inactive = flat fitted curve, though single readings scatter.
Respond using exactly one of the listed classes: active, inactive

Query block: Which result was noted for this compound in the test: CC1(C)OC(=O)NC1=O
Result block: inactive

Query block: Which result was noted for this compound in the test: CC(=O)OC(C)C
Result block: inactive

Query block: Which result was noted for this compound in the test: O=S1(=O)CCCO1
Result block: inactive

Query block: Which result was noted for this compound in the test: c1ccc2c(c1)ccc1ncccc12
Result block: inactive

Query block: Which result was noted for this compound in the test: Cc1ccc(C)c(O)c1
Result block: inactive

Query block: Which result was noted for this compound in the test: CC(C)=CCO
Result block: inactive

Query block: Which result was noted for this compound in the test: Cc1ccc(S(=O)(=O)O)cc1C
Result block: inactive

Query block: Which result was noted for this compound in the test: O=C1OC2(c3ccccc31)c1cc(I)c(O)c(I)c1Oc1c2cc(I)c(O)c1I
Result block: active

Query block: Which result was noted for this compound in the test: Brc1nc2ccccc2s1
Result block: inactive

Query block: Which result was noted for this compound in the test: CC/C=C\C/C=C\C/C=C\CCCCCCCC(=O)O
Result block: inactive

Query block: Which result was noted for this compound in the test: CCCCCCOCCOCCO
Result block: inactive

Query block: Which result was noted for this compound in the test: C=CCCCCCCCCCC
Result block: inactive

Query block: Which result was noted for this compound in the test: O=C(O)CCCCCCCCCCCC(=O)O
Result block: inactive

Query block: Which result was noted for this compound in the test: NC[C@H](O)c1ccc(O)c(O)c1
Result block: inactive

Query block: Which result was noted for this compound in the test: Cc1ccc2c(c1)C(=O)OC2=O
Result block: inactive

Query block: Which result was noted for this compound in the test: Nc1ccc(O)c(N)c1
Result block: inactive

Query block: Which result was noted for this compound in the test: ClC/C=C/CCl
Result block: inactive

Query block: Which result was noted for this compound in the test: CC1(C)O[C@@H]2C[C@H]3[C@@H]4C[C@H](F)C5=CC(=O)C=C[C@]5(C)[C@@]4(F)[C@@H](O)C[C@]3(C)[C@]2(C(=O)CO)O1
Result block: inactive

Query block: Which result was noted for this compound in the test: C1COCCN1
Result block: inactive

Entry source: PubChem BioAssay (Tox21)
